- target.or.system: CDK6/CyclinD3 (Homo sapiens)
- Sequence (Q00534 whole entry, species assumed): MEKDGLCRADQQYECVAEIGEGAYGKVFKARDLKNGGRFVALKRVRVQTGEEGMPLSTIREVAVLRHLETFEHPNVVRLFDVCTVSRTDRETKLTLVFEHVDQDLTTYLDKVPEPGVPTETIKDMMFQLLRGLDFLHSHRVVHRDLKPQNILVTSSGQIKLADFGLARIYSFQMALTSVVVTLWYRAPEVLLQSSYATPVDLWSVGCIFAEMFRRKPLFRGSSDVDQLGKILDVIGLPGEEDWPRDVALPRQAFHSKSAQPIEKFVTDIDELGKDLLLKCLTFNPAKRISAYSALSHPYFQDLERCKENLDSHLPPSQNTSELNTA
- Sequence (P30281 whole entry partner, species assumed): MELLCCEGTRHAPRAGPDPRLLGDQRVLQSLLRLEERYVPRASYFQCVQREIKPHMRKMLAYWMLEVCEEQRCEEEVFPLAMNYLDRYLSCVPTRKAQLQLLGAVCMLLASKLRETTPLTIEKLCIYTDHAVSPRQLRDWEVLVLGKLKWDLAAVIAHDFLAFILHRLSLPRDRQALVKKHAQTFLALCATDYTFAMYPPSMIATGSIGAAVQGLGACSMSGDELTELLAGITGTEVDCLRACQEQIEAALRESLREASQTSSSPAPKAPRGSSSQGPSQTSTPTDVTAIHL
- assay.text: ADP Glo kinase assay, CDK6/CyclinD3
- Assay type: biochemical
- details: compound at 1 μM, read-out: Residual enzymatic activity (%) at 1 μM, CDK6 D3
test.readout: remaining activity at 1 µM (%)

molecule	output.unit	remaining activity at 1 µM
Fc1cnc(Nc2ccc(Cl)nc2)nc1-c1cnc2ccc(-c3ccccc3)cn12	%	47

(a) CC(=O)N1CCN(c2ccc(Nc3nccc(-c4cnc5ccc(-c6ccncc6)cn45)n3)cn2)CC1
(b) CC(=O)N1CCN(c2ccc(Nc3nccc(-c4cnc5ccc(-c6ccccc6)cn45)n3)cn2)CC1
(c) O=C(c1ccco1)N1CCN(c2ccc(Nc3nccc(-c4cnc5ccc(-c6ccccc6)cn45)n3)cn2)CC1
Order the records, beginning with the lowest remaining activity at 1 µM and ending with the highest. List the labels, following the order given in the request. a, b, c

(a) CC(C)N1CCN(c2ccc(Nc3nccc(-c4cnc5ccc(-c6ccccc6)cn45)n3)cn2)CC1
(b) CS(=O)(=O)N1CCN(c2ccc(Nc3nccc(-c4cnc5ccc(-c6cc7ccccc7o6)cn45)n3)cn2)CC1
Endpoint returns whichever of a and b has the numerically higher remaining activity at 1 µM. The response must carry the label of the picked entry. b
(b: 100%, a: 41%)
